Where these numbers come from: patent US20110282056A1

# Test Target: VEGFR3 (Homo sapiens)
# Construct: purchased Millpore Corp. (Millipore) 14-681
# Sequence (P35916 25-1363): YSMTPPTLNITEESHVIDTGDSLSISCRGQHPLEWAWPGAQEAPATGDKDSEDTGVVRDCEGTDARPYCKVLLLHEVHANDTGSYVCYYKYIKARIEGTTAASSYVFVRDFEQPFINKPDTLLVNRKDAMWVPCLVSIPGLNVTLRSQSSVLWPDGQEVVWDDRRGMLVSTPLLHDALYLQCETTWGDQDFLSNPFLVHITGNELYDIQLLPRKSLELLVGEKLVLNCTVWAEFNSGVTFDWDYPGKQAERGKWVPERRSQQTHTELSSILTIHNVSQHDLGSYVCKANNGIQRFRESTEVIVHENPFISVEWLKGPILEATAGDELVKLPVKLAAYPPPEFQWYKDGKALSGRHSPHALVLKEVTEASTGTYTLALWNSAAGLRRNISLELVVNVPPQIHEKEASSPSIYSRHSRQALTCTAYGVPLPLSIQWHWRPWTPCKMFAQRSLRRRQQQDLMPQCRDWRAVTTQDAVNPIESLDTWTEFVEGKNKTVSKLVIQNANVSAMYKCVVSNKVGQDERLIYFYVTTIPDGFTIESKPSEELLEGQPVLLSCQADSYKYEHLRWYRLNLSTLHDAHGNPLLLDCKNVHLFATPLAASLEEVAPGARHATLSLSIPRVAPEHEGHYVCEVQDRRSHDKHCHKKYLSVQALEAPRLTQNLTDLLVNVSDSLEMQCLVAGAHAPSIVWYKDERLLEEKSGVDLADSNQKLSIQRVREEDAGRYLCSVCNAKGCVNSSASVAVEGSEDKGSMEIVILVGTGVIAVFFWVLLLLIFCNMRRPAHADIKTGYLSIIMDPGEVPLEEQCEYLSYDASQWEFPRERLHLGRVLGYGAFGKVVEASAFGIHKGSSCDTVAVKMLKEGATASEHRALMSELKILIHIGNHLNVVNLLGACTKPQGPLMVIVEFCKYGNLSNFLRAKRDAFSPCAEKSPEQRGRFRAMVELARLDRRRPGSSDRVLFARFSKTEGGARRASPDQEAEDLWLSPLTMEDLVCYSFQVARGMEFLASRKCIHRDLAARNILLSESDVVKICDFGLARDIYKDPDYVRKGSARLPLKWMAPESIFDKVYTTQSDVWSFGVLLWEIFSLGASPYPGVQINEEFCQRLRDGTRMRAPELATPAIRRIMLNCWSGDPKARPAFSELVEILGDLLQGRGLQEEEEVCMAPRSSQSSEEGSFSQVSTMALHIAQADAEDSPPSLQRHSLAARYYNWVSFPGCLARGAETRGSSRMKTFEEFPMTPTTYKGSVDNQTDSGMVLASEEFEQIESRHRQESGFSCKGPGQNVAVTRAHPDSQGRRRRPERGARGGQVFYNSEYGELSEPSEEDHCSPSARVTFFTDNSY
# Test Protocol: VEGFR3 enzyme activity assay (Caliper LC3000 mobility shift)
# Assay type: biochemical
# Test Conditions: 400 uM ATP (Km), 0.4 nM VEGFR3, 90 minutes at RT
# Procedure: Enzyme activity for VEGFR3, VEGFR2 and Flt3 were measured on the Caliper Life Sciences LC3000 (Hopkinton, Mass.). The system utilizes the principle of electroosmotic flow to separate and quantify the amount of phosphorylated-Fluorescein-labelled-peptide (product) from unphosphorylated-Fluorescein-labelled peptide (substrate). The amount of product and substrate are determined by measuring the peak heights from the electropherogram. […]
pIC50: −log10 of the molar value.
Parameter: pIC50

Structure String	Reported Value
C(#Cc1ccnc2[nH]ccc12)c1ncccn1	< 6.00
COc1ccc(F)cc1C#Cc1ccnc2[nH]ccc12	6.00 to 7.00
C(#Cc1ccnc2[nH]ccc12)c1ccc2c(c1)OCO2	6.00 to 7.00

Field: pIC50. Fill in for each record below.
1. C(#Cc1ccnc2[nH]ccc12)c1ccc(-c2csnn2)cc1
2. Cc1cccc(C)c1C#Cc1ccnc2[nH]ccc12

1: < 6.00; 2: < 6.00

Field: pIC50. Fill in for each record below.
1. C(#Cc1ccnc2[nH]ccc12)c1cccc(N2CCOCC2)c1
2. FC(F)(F)Oc1cccc(C#Cc2ccnc3[nH]ccc23)c1
3. Cn1cncc1C#Cc1ccnc2[nH]ccc12
4. O=C(Cc1ccccc1C#Cc1ccnc2[nH]ccc12)N1CCC(F)(F)CC1
5. Cc1nc(-c2ccc(C#Cc3ccnc4[nH]ccc34)cc2)no1
6. C(#Cc1ccnc2[nH]ccc12)c1ccccc1-n1cccc1

1: 6.00 to 7.00; 2: < 6.00; 3: 6.00 to 7.00; 4: < 6.00; 5: < 6.00; 6: 6.00 to 7.00

Field: pIC50. Fill in for each record below.
1. FC(F)(F)c1cccc(C#Cc2ccnc3[nH]ccc23)c1
2. FC(F)(F)c1ccccc1C#Cc1cnc2[nH]ccc2c1
3. CC(=O)Nc1ccc(C#Cc2ccnc3[nH]ccc23)cc1
4. Fc1cccc(C#Cc2ccnc3[nH]ccc23)c1
5. COc1cc(C#Cc2ccnc3[nH]ccc23)cc(OC)c1
6. C(#Cc1ccnc2[nH]ccc12)c1ccc2cc[nH]c2c1
7. COc1ccc(C#Cc2cnc3[nH]ccc3c2)cc1

< 6.00
< 6.00
6.00 to 7.00
6.00 to 7.00
< 6.00
< 6.00
< 6.00

Field: pIC50. Fill in for each record below.
1. COC(=O)c1ccc(C#Cc2ccnc3[nH]ccc23)cc1
2. Cc1cccc(C#Cc2ccnc3[nH]ccc23)c1
3. FC(F)Oc1ccc(C#Cc2ccnc3[nH]ccc23)cc1
4. Nc1ccccc1C#Cc1cnc2[nH]ccc2c1
5. Cc1cc(C)cc(C#Cc2ccnc3[nH]ccc23)c1

["< 6.00", "6.00 to 7.00", "< 6.00", "< 6.00", "< 6.00"]

----------
# Test Target: Flt3 (Homo sapiens, UniProt P36888)
# Sequence (P36888 27-993): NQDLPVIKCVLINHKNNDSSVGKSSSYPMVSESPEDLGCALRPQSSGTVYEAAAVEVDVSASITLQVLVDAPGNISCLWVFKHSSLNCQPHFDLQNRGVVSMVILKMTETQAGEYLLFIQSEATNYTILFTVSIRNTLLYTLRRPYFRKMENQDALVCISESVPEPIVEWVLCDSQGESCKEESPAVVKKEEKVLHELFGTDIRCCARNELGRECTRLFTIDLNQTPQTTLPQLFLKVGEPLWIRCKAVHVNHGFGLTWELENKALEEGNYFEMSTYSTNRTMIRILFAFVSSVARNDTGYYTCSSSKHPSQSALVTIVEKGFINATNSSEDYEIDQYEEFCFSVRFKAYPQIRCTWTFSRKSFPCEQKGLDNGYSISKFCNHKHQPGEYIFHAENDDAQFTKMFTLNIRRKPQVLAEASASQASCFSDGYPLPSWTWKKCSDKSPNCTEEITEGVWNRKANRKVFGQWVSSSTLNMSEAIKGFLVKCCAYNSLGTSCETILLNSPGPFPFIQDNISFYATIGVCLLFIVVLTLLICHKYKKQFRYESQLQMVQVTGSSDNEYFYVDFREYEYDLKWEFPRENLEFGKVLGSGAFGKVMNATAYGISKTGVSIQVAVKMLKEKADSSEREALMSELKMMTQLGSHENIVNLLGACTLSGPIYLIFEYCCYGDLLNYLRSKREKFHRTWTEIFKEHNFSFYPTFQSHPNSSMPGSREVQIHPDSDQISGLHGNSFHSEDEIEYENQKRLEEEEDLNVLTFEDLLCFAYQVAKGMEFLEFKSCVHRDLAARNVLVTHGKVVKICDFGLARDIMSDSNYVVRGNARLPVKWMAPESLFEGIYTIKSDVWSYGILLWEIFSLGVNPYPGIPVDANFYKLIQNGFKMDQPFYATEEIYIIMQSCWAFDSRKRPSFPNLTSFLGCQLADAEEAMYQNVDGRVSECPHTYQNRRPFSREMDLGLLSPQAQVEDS
Could you please report measured IC50 for the items listed next?

Use these answered entries as a reference point.
Structure String	Parameter	Reported Value
O=C(Cc1ccccc1C#Cc1ccnc2[nH]ccc12)N1CCC(F)(F)CC1	IC50	> 1 µM
CN(C)c1ccc(C#Cc2ccnc3[nH]ccc23)cc1	IC50	> 1 µM
COc1cccnc1C#Cc1ccnc2[nH]ccc12	IC50	> 1 µM
COc1ccc(C#Cc2ccnc3[nH]ccc23)cc1	IC50	> 1 µM
Nc1ccccc1C#Cc1cnc2[nH]ccc2c1	IC50	> 1 µM

Field: IC50. Fill in for each record below.
1. FC(F)(F)c1ccc(C#Cc2ccnc3[nH]ccc23)cc1
2. N#CCc1ccc(C#Cc2ccnc3[nH]ccc23)cc1
3. COc1ccc(C#Cc2ccnc3[nH]ccc23)cc1OC
4. C(#Cc1ccnc2[nH]ccc12)c1cccc(Nc2ccccc2)c1
5. C(#Cc1ccnc2[nH]ccc12)c1ccc(-c2ccccc2)cc1
6. FC(F)(F)c1ccccc1C#Cc1cnc2[nH]ccc2c1

["> 1 µM", "0.1 to 1 µM", "> 1 µM", "> 1 µM", "> 1 µM", "> 1 µM"]

Field: IC50. Fill in for each record below.
1. C(#Cc1ccnc2[nH]ccc12)c1ccc(-c2csnn2)cc1
2. COC(=O)c1cccc(C#Cc2ccnc3[nH]ccc23)c1
3. C(#Cc1cnc2[nH]ccc2c1)c1ccccc1
4. C(#Cc1ccnc2[nH]ccc12)c1cccc(-n2cccc2)c1
5. Cn1cncc1C#Cc1ccnc2[nH]ccc12
6. Cc1cccc(C#Cc2ccnc3[nH]ccc23)c1
7. COc1ccc(C#Cc2ccnc(NC(=O)OC(C)(C)C)c2)cc1
8. O=C(c1ccc(C#Cc2ccnc3[nH]ccc23)cc1)C1CC1

["> 1 µM", "> 1 µM", "> 1 µM", "> 1 µM", "0.1 to 1 µM", "> 1 µM", "> 1 µM", "> 1 µM"]

Field: IC50. Fill in for each record below.
1. Cc1cc(C)cc(C#Cc2ccnc3[nH]ccc23)c1
2. FC(F)(F)c1ccccc1C#Cc1ccnc2[nH]ccc12

1. > 1 µM
2. > 1 µM

Field: IC50. Fill in for each record below.
1. Fc1ccc(C#Cc2ccnc3[nH]ccc23)cc1
2. N#Cc1ccc(C#Cc2ccnc3[nH]ccc23)cn1
3. C(#Cc1ccnc2[nH]ccc12)c1cccnc1
4. C(#Cc1ccnc2[nH]ccc12)c1cccc(-c2ccccc2)c1
5. COc1ccccc1C#Cc1ccnc2[nH]ccc12
6. C(#Cc1ccnc2[nH]ccc12)c1ccc(N2CCOCC2)cc1
7. C#Cc1ccnc2[nH]ccc12

["> 1 µM", "> 1 µM", "> 1 µM", "> 1 µM", "> 1 µM", "> 1 µM", "> 1 µM"]

Field: IC50. Fill in for each record below.
1. C[Si](C)(C)C#Cc1ncnc2sc3c(c12)CCCC3
2. C(#Cc1ccnc2[nH]ccc12)c1ccccc1-n1cccc1

1. > 1 µM
2. > 1 µM

Field: IC50. Fill in for each record below.
1. C=Cc1cccc(C#Cc2ccnc3[nH]ccc23)c1
2. C(#Cc1ccnc2[nH]ccc12)c1cncnc1
3. COc1ccc(OC)c(C#Cc2ccnc3[nH]ccc23)c1
4. C(#Cc1ccnc2[nH]ccc12)c1cccc(N2CCOCC2)c1
5. Cc1nc(-c2ccc(C#Cc3ccnc4[nH]ccc34)cc2)no1
6. COC(=O)c1cccc(C#Cc2ccnc3[nH]ccc23)n1

1. > 1 µM
2. > 1 µM
3. > 1 µM
4. > 1 µM
5. > 1 µM
6. > 1 µM

Field: IC50. Fill in for each record below.
1. C#Cc1ncnc2[nH]ccc12
2. Nc1ccc(C#Cc2cnc3[nH]ccc3c2)cc1
3. COc1cccc(C#Cc2ccnc3[nH]ccc23)n1
4. C(#Cc1ccnc2[nH]ccc12)c1ccccc1-c1ccccc1
5. CC(=O)c1ccc(C#Cc2ccnc3[nH]ccc23)nc1

1: > 1 µM; 2: 0.1 to 1 µM; 3: > 1 µM; 4: > 1 µM; 5: > 1 µM
